Assay Comment: growth inhibitors of H69AR lung tumor, primary screen, human, duplicate replicates (AID 580);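 also: 100% = mean luminescence of untreated wells and 0% = no signal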
Measurement Context: H69AR lung tumor cells viability, ATP luminescence, 72 h; at 10 µM; active compounds read low

>  <Sample Smiles>
Cc1cc(C(=O)Cn2cncn2)c(C)n1CCc1ccc(F)cc1

>  <viability [%]>
89.2

$$$$
>  <Sample Smiles>
CCOc1ccc(NS(=O)(=O)c2ccc(OCC(=O)N3CCCC3)cc2)cc1

>  <viability [%]>
88.7

$$$$
>  <Sample Smiles>
COc1ccc(Cl)cc1NC(=O)CSc1nncn1-c1cccnc1

>  <viability [%]>
88.3

$$$$
>  <Sample Smiles>
COc1cccc(-c2cc(C(F)(F)F)n3nc(N)nc3n2)c1

>  <viability [%]>
88.9

$$$$
